Let's look at some molecules and their measured Ki.
System name: Bile salt export pump (Rattus norvegicus, UniProt O70127)
Sequence (O70127 whole entry): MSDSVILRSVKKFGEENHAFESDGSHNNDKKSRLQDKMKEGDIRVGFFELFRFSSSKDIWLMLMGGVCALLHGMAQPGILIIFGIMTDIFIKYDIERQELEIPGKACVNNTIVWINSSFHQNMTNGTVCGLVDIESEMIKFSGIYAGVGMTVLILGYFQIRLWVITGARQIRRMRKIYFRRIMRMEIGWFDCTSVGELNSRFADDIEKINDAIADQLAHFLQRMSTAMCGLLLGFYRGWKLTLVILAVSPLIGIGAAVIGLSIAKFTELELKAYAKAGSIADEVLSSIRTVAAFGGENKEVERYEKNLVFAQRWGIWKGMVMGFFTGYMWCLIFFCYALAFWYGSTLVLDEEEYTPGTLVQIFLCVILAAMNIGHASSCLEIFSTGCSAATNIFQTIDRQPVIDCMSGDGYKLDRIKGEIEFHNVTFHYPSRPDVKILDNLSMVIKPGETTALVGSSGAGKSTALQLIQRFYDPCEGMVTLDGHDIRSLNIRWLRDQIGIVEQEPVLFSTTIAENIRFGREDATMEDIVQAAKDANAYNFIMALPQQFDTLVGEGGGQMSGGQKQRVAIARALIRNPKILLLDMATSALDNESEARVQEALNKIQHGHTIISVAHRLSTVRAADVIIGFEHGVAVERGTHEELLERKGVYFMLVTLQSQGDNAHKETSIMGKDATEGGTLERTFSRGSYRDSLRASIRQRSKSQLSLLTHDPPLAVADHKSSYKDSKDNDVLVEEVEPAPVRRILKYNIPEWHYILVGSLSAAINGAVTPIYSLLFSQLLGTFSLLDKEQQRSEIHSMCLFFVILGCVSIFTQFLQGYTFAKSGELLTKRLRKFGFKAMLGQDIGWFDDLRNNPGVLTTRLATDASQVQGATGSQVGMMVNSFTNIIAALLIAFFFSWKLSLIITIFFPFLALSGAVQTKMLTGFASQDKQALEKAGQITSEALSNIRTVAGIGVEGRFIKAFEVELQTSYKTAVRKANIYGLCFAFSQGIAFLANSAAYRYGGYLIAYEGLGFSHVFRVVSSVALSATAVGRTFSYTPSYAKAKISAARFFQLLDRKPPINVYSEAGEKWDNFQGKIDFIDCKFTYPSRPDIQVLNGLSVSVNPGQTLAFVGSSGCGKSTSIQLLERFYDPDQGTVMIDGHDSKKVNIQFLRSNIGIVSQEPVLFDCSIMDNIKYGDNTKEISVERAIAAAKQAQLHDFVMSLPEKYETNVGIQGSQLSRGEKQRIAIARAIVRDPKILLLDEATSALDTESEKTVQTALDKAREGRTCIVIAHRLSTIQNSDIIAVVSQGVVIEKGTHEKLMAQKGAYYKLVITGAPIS
Assay procedure: TP_TRANSPORTER: inhibition of Taurocholate uptake in membrane vesicle from Bsep-expressing Sf9-cell
Report the figure in µM without appending any unit label.

>>> observed_value("COc1ccccc1Oc1c(NS(=O)(=O)c2ccc(C(C)(C)C)cc2)nc(-c2ncccn2)nc1OCCO")
12

Would you kindly look at the next entry?
// query Observed Ki on Bile salt export pump (Rattus norvegicus, UniProt O70127) for CC(C)(C)c1ccc(S(=O)(=O)Nc2nc(-c3ncccn3)nc(OCCO)c2Cc2ccccc2O)cc1 , please.
// result 8.5
